# target_of_assay: T1, CNTF receptor-α (CNTFRα) (UniProt P26992 23-342, limits assumed)
# T1 construct: also called CNTFRa; CNTF a-receptor
# T1 sequence (looked up): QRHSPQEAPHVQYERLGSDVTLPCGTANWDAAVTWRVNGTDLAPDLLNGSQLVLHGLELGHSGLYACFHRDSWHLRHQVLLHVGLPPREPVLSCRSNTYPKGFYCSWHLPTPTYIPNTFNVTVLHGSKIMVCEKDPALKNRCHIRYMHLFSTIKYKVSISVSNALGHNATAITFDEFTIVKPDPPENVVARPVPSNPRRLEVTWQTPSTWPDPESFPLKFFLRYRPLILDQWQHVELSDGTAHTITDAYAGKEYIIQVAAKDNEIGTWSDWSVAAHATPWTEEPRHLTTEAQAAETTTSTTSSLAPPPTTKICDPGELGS
# protocol_summary: solid phase binding assay on CNTFRα

{"columns": ["binder", "Relative Binding (hCNTF = 1)"],
 "data": [
  ["(Gln63Arg) hCNTF (ligand) MAFTEHSPLTPHRRDLCSRSIWLARKIRSDLTALTESYVKHQGLNKNINLDSADGMPVASTDRWSELTEAERLQENLQAYRTFHVLLARLLEDQQVHFTPTEGDFHQAIHTLLLQVAAFAYQIEELMILLEYKIPRNEADGMPINVGDGGLFEKKLWGLKVLQELSQWTVRSIHDLRFISSHQTGIPARGSHYIANNKKM", "2 relative (hCNTF = 1)"]
]}

Source of measurements: patent US6565869
